Cited source: patent US20240228499A1

As an illustration, consider measured Ki for compounds on UniProt:P00734.
Counter-ions that a name gives are not always drawn.

For the compound Cc1cc(F)cc(CNc2cnc3n(c2=O)[C@H](C(=O)NCc2ccc(N)nc2C)CC3)c1 [Compound 34, di-trifluoroacetate] , report Ki.
< 0.5 µM

For the compound Cc1nc(N)ccc1CNC(=O)[C@@H]1CCc2ncc(NCc3cccc(N4CCOCC4)c3)c(=O)n21 [Compound 11, hydrochloride] , report Ki.
0.5 to 2.5 µM

For the compound Cc1nc(N)ccc1CNC(=O)[C@@H]1CCc2ncc(NCc3cc(F)cc(C(F)(F)F)c3)c(=O)n21 [Compound 47, di-trifluoroacetate] , report Ki.
0.5 to 2.5 µM

For the compound COc1cc(C)cc(CNc2cnc3n(c2=O)[C@H](C(=O)NCc2ccc(N)nc2C)CC3)c1 , report Ki.
< 0.5 µM

For the compound COc1cc(CNc2cnc3n(c2=O)[C@H](C(=O)NCc2ccc(N)nc2C)CC3)ccc1C [Compound 45, trifluoroacetate] , report Ki.
0.5 to 2.5 µM

For the compound Cc1nc(N)ccc1CNC(=O)[C@@H]1CCc2ncc(NCc3cccc(C(F)(F)F)c3F)c(=O)n21 [Compound 42, di-trifluoroacetate] , report Ki.
0.5 to 2.5 µM

For the compound Cc1nc(N)ccc1CNC(=O)[C@@H]1CCc2ncc(NCc3cc(C(F)(F)F)ccc3F)c(=O)n21 [Compound 38, di-trifluoroacetate] , report Ki.
2.5 to 10 µM
